Molecular target: T1, human DLL3 on cells (human, UniProt Q9NYJ7 27-618)
T1 construct: Endogenous on H1184 and SHP77; Cell line is named under assay; also called H1184; DLL3/H82
T1 sequence: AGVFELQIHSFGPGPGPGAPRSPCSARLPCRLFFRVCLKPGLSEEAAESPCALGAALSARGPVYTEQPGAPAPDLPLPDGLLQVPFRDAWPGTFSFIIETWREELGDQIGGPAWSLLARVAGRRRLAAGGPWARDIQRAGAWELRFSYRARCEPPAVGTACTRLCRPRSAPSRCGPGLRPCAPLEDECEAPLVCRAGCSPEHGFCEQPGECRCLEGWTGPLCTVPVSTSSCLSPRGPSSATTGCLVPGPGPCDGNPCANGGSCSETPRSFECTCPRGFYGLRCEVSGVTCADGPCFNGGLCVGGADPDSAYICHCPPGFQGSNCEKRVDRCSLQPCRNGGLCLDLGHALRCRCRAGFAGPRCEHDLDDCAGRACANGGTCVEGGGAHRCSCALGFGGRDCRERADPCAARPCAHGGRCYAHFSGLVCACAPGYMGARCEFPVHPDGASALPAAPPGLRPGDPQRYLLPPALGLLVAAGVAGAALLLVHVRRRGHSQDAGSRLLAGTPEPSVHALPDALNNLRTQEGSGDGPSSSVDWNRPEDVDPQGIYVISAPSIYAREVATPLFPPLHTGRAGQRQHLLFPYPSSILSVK
Test: flow cytometry, H1184 cells
Method: The plates were centrifuged at 300 g for 5 min, and the supernatant was removed. Different concentrations of test antibodies were added at 100 μL/well. The plates were incubated in the dark in a refrigerator at 4° C. for 1 h. […] After 3 centrifugal washes at 300 g, the geometric mean fluorescence intensity was measured on an Invitrogen flow cytometer, and the EC50 values for the binding of the antibodies to DLL3-expressing cells were calculated.
TEST READOUT: Emax

| BINDER | TEST READOUT | TEST VALUE |
| --- | --- | --- |
| hu6L2H13 (antibody, human IgG1, kappa, V domains shown) VH: EVQLVQSGSELKKPGASVKVSCKASGYTFTDYYMNWVKQAPGQGLEWMGIINPYSGVTIYNHKFKGRFALSVDKSSNTAYLQISSLKAEDTAVYYCARQDSLLDYAMDYWGQGTTVTVSS VL: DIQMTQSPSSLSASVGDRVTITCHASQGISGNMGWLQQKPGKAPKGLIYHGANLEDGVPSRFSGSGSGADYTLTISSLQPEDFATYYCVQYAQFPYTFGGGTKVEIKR | Emax | 2100 |
| hu6L2H7 (antibody, human IgG1, kappa, V domains shown) VH: EVQLVESGGGLVQPGGSLKLSCAASGYTFTDYYMNWVRQASGKGLEWVGIINPYSGVTIYNHKFKGRFTLSVDKSKNTAYLQMNSLKTEDTAVYYCARQDSLLDYAMDYWGQGTTVTVSS VL: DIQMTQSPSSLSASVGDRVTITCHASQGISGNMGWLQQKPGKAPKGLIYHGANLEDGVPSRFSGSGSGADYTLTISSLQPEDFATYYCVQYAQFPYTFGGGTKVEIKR | Emax | 2200 |
